# Test system: Escherichia coli
# PROTOCOL_DESCRIPTION: Inhibition of quorum sensing in Escherichia coli JB357 expressing green fluorescent protein assessed as reduction of OHHL-induced GFP expression after 2 hrs by fluorescence assay relative to OHHL
MEASURED_METRIC: Ratio

molecule=CCCCN1C(=O)C=C(Br)/C1=C/Br meas_value=19
molecule="O=C1C=C(Br)C2(CBr)OCCCN3C(=O)C=C(Br)C3(CBr)OCCCN12 (stereo not drawn)" meas_value=112
molecule="CCCC(Br)C1=CC(=C(Br)Br)N(c2ccccc2)C1=O (stereo not drawn)" meas_value=1.95
molecule=CCCCC1=C(Br)/C(=C/Br)N(CCCC)C1=O meas_value=279
molecule=CCCCC1=CC(=C(Br)Br)N(Cc2ccccc2)C1=O meas_value=220
molecule="O=C1C=C(Br)C2(CBr)OCCN3C(=O)C=C(Br)C3(CBr)OCCN12 (stereo not drawn)" meas_value=78
molecule=O=C1C=C(Br)/C(=C/Br)N1Cc1ccccc1 meas_value=26
molecule=CCCCCCC1=CC(=C(Br)Br)N(c2ccccc2)C1=O meas_value=248
molecule=O=C1C=C(Br)C(=C(Br)Br)N1Cc1ccccc1 meas_value=150
molecule=CCCCCCC1=CC(=C(Br)Br)N(Cc2ccccc2)C1=O meas_value=140
molecule=CCCCC1=CC(=C(Br)Br)N(c2ccccc2)C1=O meas_value=97
molecule=CCCCCCCCN1C(=O)C=C(Br)/C1=C/Br meas_value=20
molecule=CC(C)CN1C(=O)C=C(Br)C1=C(Br)Br meas_value=65
